# ASSAY_TARGET: recombinant SARS-CoV-2 Main protease (Mpro) (Severe acute respiratory syndrome coronavirus 2 (2019-nCoV) (SARS-CoV-2), UniProt P0DTD1)
# MEASUREMENT_DESCRIPTION: Cov Mpro Biochemical IC50 Assay
# EXPERIMENTAL_CONDITIONS: recombinant SARS-CoV-2 Mpro 7.5 nM, fluorogenic peptide substrate 40 μM; read-out: MPro IC50

- MOLECULE: "N#Cc1cnccc1-c1cc2[nH]c(=O)n(-c3cncc4ccccc34)c(=O)c2s1"
  UNIT_SPEC: "nM"
  REPORTED_RELATION: "="
  IC50: 50
- MOLECULE: "COc1ccc2cncc(-n3c(=O)[nH]c4cc(-c5ccccc5Cl)sc4c3=O)c2n1"
  UNIT_SPEC: "nM"
  REPORTED_RELATION: "="
  IC50: 14
- MOLECULE: "COc1cnc(Cl)c(-c2cc3c(s2)c(=O)n(-c2cncc4cnn(C)c24)c(=O)n3CCC#N)c1 (single isomer, unassigned) [Example 1091]"
  UNIT_SPEC: "nM"
  REPORTED_RELATION: "="
  IC50: 141
- MOLECULE: "N#CCCn1c(=O)n(-c2cnccn2)c(=O)c2sc(-c3ccccc3Cl)cc21"
  UNIT_SPEC: "nM"
  REPORTED_RELATION: "="
  IC50: 94.1
- MOLECULE: "COc1cc(-c2cc3[nH]c(=O)n(-c4cncc5cnn(C)c45)c(=O)c3s2)c(Cl)cc1F (single isomer, unassigned) [Example 640]"
  UNIT_SPEC: "nM"
  REPORTED_RELATION: "<"
  IC50: 4.26
- MOLECULE: "O=c1[nH]c2cc(-c3ccccc3Cl)sc2c(=O)n1-c1cncc2cccnc12 (single isomer, unassigned) [Example 463]"
  UNIT_SPEC: "nM"
  REPORTED_RELATION: "="
  IC50: 202
- MOLECULE: "COc1ccc(Cl)c(-c2ccc3c(=O)n(-c4cncc5ccc(N6CC[C@H](OC)C6)cc45)c(=O)[nH]c3c2)c1"
  UNIT_SPEC: "nM"
  REPORTED_RELATION: "="
  IC50: 15.7
- MOLECULE: "COc1cnc(Cl)c(-c2cc3c(s2)c(=O)n(-c2cncc4ccccc24)c(=O)n3CCC#N)c1 (single isomer, unassigned) [Example 1089]"
  UNIT_SPEC: "nM"
  REPORTED_RELATION: ">"
  IC50: 1000
- MOLECULE: "COc1cc(-c2cc3[nH]c(=O)n(-c4cncc5ncc(C)n45)c(=O)c3s2)c(Cl)cc1F"
  UNIT_SPEC: "nM"
  REPORTED_RELATION: "="
  IC50: 18
- MOLECULE: "N#CCCn1c(=O)n(-c2cncc3ccccc23)c(=O)c2sc(-c3cc(F)ccc3Cl)cc21"
  UNIT_SPEC: "nM"
  REPORTED_RELATION: "="
  IC50: 8.53
- MOLECULE: "COc1cc(-c2ccc3c(=O)n(-c4cncc5ccccc45)c(=O)n(CC#N)c3c2)c(Cl)cc1F"
  UNIT_SPEC: "nM"
  REPORTED_RELATION: "="
  IC50: 11.2
- MOLECULE: "COc1cc(-c2cc3[nH]c(=O)n(-c4cncc5cccc(C)c45)c(=O)c3s2)c(Cl)cc1F (single isomer, unassigned) [Example 995]"
  UNIT_SPEC: "nM"
  REPORTED_RELATION: "="
  IC50: 3.27
- MOLECULE: "COc1cc(Cl)c(-c2cc3[nH]c(=O)n(-c4cncc5ccccc45)c(=O)c3s2)cc1F"
  UNIT_SPEC: "nM"
  REPORTED_RELATION: "="
  IC50: 8.5
- MOLECULE: "COc1ccc(Cl)c(-c2cc3[nH]c(=O)n(-c4cncc5nn(CC(F)(F)F)cc45)c(=O)c3s2)c1"
  UNIT_SPEC: "nM"
  REPORTED_RELATION: "="
  IC50: 14.8
